System: L132 cells (normal cells)
test name: Lactate assay (luminescence) in L132 cells, candidate substance alone or combined with a substance that causes lactic acidosis
Type: cell-based
settings: L132; candidate 50 μM + linezolid 200 μM; relative to linezolid alone (PC)
readout type: Lactic acid-decreasing rate vs. PC (%)
State the answer as a number, implicitly in %.

Query: Entry `CCCCNC(=O)n1c(NC(=O)OC)nc2ccccc21` has what Lactic acid-decreasing rate vs. PC (%)?
Response: 15.17

Query: Moving on to `O=CC(=O)c1ccccc1`
Response: 11.11

Query: Moving on to Nc1c(O)cccc1C(=O)CC(N)C(=O)O (racemic) [3-hydroxy-DL-kynurenine, 3-Hydroxy-DL-kynurenine]
Response: 13.61

Query: Moving on to `Cc1cc2c(C(C)C)c(O)c(O)c(C=O)c2c(O)c1-c1c(C)cc2c(C(C)C)c(O)c(O)c(C=O)c2c1O`
Response: 32.16

Query: Moving on to `CS(=O)(=O)Nc1ccc(-c2coc3cc(OCc4cccc(C(=O)O)c4)ccc3c2=O)cc1`
Response: −0.28

====

Lactic acid value vs. PC (%) listing for selected molecules.
Test system: A549 cells (cancer cells)
test name: Lactate assay (luminescence) in A549 cells, candidate substance alone or combined with a substance that causes lactic acidosis
Format: cell-based
settings: A549; candidate 50 μM + phenformin 100 μM; relative to phenformin alone (PC)

[[record]]
compound_structure_string = "O=c1c(-c2ccc(O)cc2)coc2cc(O[C@@H]3O[C@H](CO)[C@@H](O)[C@H](O)[C@H]3O)ccc12"
measured_target = "A549 cells (cancer cells)"
readout_type = "Lactic acid value vs. PC (%)"
reading = "99.76%"


# evaluate next
Query: Please tell me: Lactic acid value vs. PC (%) of `CS(=O)(=O)Nc1ccc(-c2coc3cc(OCc4cccc(C(=O)O)c4)ccc3c2=O)cc1` , system A549 cells (cancer cells)?
Response: 92.13%

====

Lactic acid value vs. PC (%) listing for selected compounds.
Test system: A549 cells (cancer cells)
test name: Lactate assay (luminescence) in A549 cells, candidate substance alone or combined with a substance that causes lactic acidosis
Assay type: cell-based
settings: A549; candidate 50 μM + phenformin 100 μM; relative to phenformin alone (PC)
State the answer as a number, implicitly in %.

Worked examples, 3 compounds total:
[[record]]
compound = "Cc1cc2c(C(C)C)c(O)c(O)c(C=O)c2c(O)c1-c1c(C)cc2c(C(C)C)c(O)c(O)c(C=O)c2c1O"
reading = 67.24

[[record]]
compound = "N#CN [Cyanamide]"
reading = 98.83

[[record]]
compound = "N.N.[Cl][Pt][Cl] [CDDP, Cis-diamminedichloridoplatinum]"
reading = 80.03


Query: Entry `C=C(OP(=O)([O-])O)C(=O)O.O.[Na+]` has what Lactic acid value vs. PC (%)?
Response: 94.91

Query: Moving on to `CCCCNC(=O)n1c(NC(=O)OC)nc2ccccc21`
Response: 92.74

Query: Moving on to `C#CCN(C)Cc1ccccc1`
Response: 95.59

====

Test system: L132 cells (normal cells)
test name: Lactate assay (luminescence) in L132 cells, candidate substance alone or combined with a substance that causes lactic acidosis
Assay type: cell-based
settings: L132; candidate 50 μM + linezolid 200 μM; relative to linezolid alone (PC)
readout type: Lactic acid value vs. PC (%)
State the answer as a number, implicitly in %.

Worked examples, 4 compounds total:
[[record]]
compound = "CCSC(=O)N1CCCCCC1 [Molinate]"
reading = 125.68

[[record]]
compound = "O=c1c(-c2ccc(O)cc2)coc2cc(O[C@@H]3O[C@H](CO)[C@@H](O)[C@H](O)[C@H]3O)ccc12"
reading = 87.80

[[record]]
compound = "CCN(CC)C(=S)SSC(=S)N(CC)CC"
reading = 87.16

[[record]]
compound = "O=C(O)c1cc(=O)c2ccccc2[nH]1"
reading = 93.53


Query: Please tell me: Lactic acid value vs. PC (%) of `CS(=O)(=O)Nc1ccc(-c2coc3cc(OCc4cccc(C(=O)O)c4)ccc3c2=O)cc1` , system L132 cells (normal cells)?
Response: 100.28

Query: Moving on to `CCCCNC(=O)n1c(NC(=O)OC)nc2ccccc21`
Response: 84.83

Query: Moving on to `Cc1cc2c(C(C)C)c(O)c(O)c(C=O)c2c(O)c1-c1c(C)cc2c(C(C)C)c(O)c(O)c(C=O)c2c1O`
Response: 67.84

Query: Moving on to Nc1c(O)cccc1C(=O)CC(N)C(=O)O (racemic) [3-hydroxy-DL-kynurenine, 3-Hydroxy-DL-kynurenine]
Response: 86.39

Query: Moving on to `O=CC(=O)c1ccccc1`
Response: 88.89

====

Test system: A549 cells (cancer cells)
test name: Lactate assay (luminescence) in A549 cells, candidate substance alone or combined with a substance that causes lactic acidosis
Assay type: cell-based
settings: A549; candidate 50 μM + phenformin 100 μM; relative to phenformin alone (PC)
readout type: Lactic acid value vs. PC (%)
State the answer as a number, implicitly in %.

Worked examples, 3 compounds total:
[[record]]
compound = "O=CC(=O)c1ccccc1"
reading = 89.61

[[record]]
compound = "CCN(CC)c1ccc(C=O)cc1"
reading = 94.28

[[record]]
compound = "CCSC(=O)N1CCCCCC1 [Molinate]"
reading = 91.13


Query: Entry CCCNC(=O)NS(=O)(=O)c1ccc(Cl)cc1 [Chlorpropamide] has what Lactic acid value vs. PC (%)?
Response: 94.87

Query: Moving on to Nc1c(O)cccc1C(=O)CC(N)C(=O)O (racemic) [3-hydroxy-DL-kynurenine, 3-Hydroxy-DL-kynurenine]
Response: 91.34

====

System: A549 cells (cancer cells)
test name: Lactate assay (luminescence) in A549 cells, candidate substance alone or combined with a substance that causes lactic acidosis
Type: cell-based
settings: Homo sapiens; A549; candidate 50 μM alone, no berberine; 24 h; vs negative control; mean ± SEM; read-out: Luminescence intensity (%), Berberine (10 μM) −
activity at 50 µM listing for selected compounds.

Worked examples, 3 compounds total:
[[record]]
compound = "CC(C)=CCCC(C)=CC=O [Citral]"
reading = "100%"

[[record]]
compound = "CCN(CC)C(=S)SSC(=S)N(CC)CC [Disulfiram]"
reading = "86.1%"

[[record]]
compound = "O=CC(=O)c1ccccc1 [Phenylglyoxal]"
reading = "97.3%"


Query: Please tell me: activity at 50 µM of N#CN [Cyanamide] , system A549 cells (cancer cells)?
Response: 97%

Query: Moving on to CCSC(=O)N1CCCCCC1 [Molinate]
Response: 110%

Query: Moving on to C#CCN(C)Cc1ccccc1 [Pargyline]
Response: 95.7%

Query: Moving on to CS(=O)(=O)Nc1ccc(-c2coc3cc(OCc4cccc(C(=O)O)c4)ccc3c2=O)cc1 [CVT-10216]
Response: 96.5%

Query: Moving on to O=C(O)c1cc(=O)c2ccccc2[nH]1 [Kynurenic acid]
Response: 93.9%

Query: Moving on to CCCCNC(=O)n1c(NC(=O)OC)nc2ccccc21 [Benomyl]
Response: 87.7%

Query: Moving on to CCCNC(=O)NS(=O)(=O)c1ccc(Cl)cc1 [Chlorpropamide]
Response: 97%

====

Luminescence intensity (%), Berberine (10 μM) − listing for selected molecules.
Tested on: A549 cells (cancer cells)
test name: Lactate assay (luminescence) in A549 cells, candidate substance alone or combined with a substance that causes lactic acidosis
Type: cell-based
settings: A549; candidate 50 μM alone, no berberine; 24 h; vs negative control; mean ± SEM

Worked examples, 3 molecules total:
[[record]]
molecule = "Nc1c(O)cccc1C(=O)CC(N)C(=O)O (racemic) [3-hydroxy-DL-kynurenine, 3-Hydroxy-DL-kynurenine]"
reading = "91.52 ± 1.46 %"

[[record]]
molecule = "N.N.[Cl][Pt][Cl] [CDDP, Cis-diamminedichloridoplatinum]"
reading = "75.98 ± 2.34 %"

[[record]]
molecule = "CCN(CC)c1ccc(C=O)cc1 [DEAB, Diethylaminobenzaldehyde]"
reading = "96.72 ± 0.78 %"


# evaluate next
Query: Please tell me: Luminescence intensity (%), Berberine (10 μM) − of `C=C(OP(=O)([O-])O)C(=O)O.O.[Na+]` , system A549 cells (cancer cells)?
Response: 100.07 ± 1.80^ %

====

Lactic acid value vs. PC (%) listing for selected compounds.
Tested on: A549 cells (cancer cells)
test name: Lactate assay (luminescence) in A549 cells, candidate substance alone or combined with a substance that causes lactic acidosis
Type: cell-based
settings: A549; candidate 50 μM + berberine 10 μM; relative to berberine alone (PC)
State the answer as a number, implicitly in %.

Query: Please tell me: Lactic acid value vs. PC (%) of N.N.[Cl][Pt][Cl] [CDDP, Cis-diamminedichloridoplatinum] , system A549 cells (cancer cells)?
Response: 74.20

Query: Moving on to Nc1c(O)cccc1C(=O)CC(N)C(=O)O (racemic) [3-hydroxy-DL-kynurenine, 3-Hydroxy-DL-kynurenine]
Response: 92.55

Query: Moving on to O=C(O)c1cc(=O)c2ccccc2[nH]1 [Kynurenic acid]
Response: 101.87

Query: Moving on to O=c1c(-c2ccc(O)cc2)coc2cc(O[C@@H]3O[C@H](CO)[C@@H](O)[C@H](O)[C@H]3O)ccc12 [Daidzin]
Response: 92.49

Query: Moving on to C#CCN(C)Cc1ccccc1 [Pargyline]
Response: 101.89
